study target: Peroxisome proliferator-activated receptor gamma (Homo sapiens) (UniProt P37231)
Sequence (P37231 whole entry, the tested form may be a part): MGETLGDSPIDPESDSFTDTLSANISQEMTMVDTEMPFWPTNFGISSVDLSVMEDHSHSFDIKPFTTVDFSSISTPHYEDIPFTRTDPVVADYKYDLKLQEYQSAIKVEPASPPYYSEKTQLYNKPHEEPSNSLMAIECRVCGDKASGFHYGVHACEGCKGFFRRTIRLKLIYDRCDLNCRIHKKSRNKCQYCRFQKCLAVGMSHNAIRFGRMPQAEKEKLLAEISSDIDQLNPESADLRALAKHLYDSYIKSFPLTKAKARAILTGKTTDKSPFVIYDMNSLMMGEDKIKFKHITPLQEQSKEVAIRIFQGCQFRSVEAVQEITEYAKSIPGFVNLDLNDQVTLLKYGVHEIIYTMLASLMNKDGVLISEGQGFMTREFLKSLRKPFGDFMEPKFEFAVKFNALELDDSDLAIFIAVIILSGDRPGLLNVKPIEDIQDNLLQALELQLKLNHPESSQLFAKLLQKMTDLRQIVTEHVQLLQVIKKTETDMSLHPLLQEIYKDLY
assay notes: Displacement of Fluoromone from GST-tagged recombinant human PPARgamma ligand binding domain at 10 uM by LanthaScreen TR-FRET assay relative to pioglitazone
Assignment: determine reported inhibition for the given compounds.
Return type: number; implicit unit %.

Input: What reported inhibition corresponds to `COc1cc2c(cc1OC)C(/C=C1\SC(C(=O)c3cccs3)=NN1c1ccc(C)cc1)=NCC2` on Peroxisome proliferator-activated receptor gamma (Homo sapiens) (UniProt P37231)?
Output: 42

Input: What reported inhibition corresponds to `O=S(=O)(CS(=O)(=O)Oc1cc(Cl)cc(Cl)c1)Oc1cc(Cl)cc(Cl)c1` on Peroxisome proliferator-activated receptor gamma (Homo sapiens) (UniProt P37231)?
Output: 48

Input: What reported inhibition corresponds to `CSc1nc(Sc2nnc(-c3cc(C(F)(F)F)cc(C(F)(F)F)c3)[nH]2)cc(Sc2nnc(-c3cc(C(F)(F)F)cc(C(F)(F)F)c3)[nH]2)n1` on Peroxisome proliferator-activated receptor gamma (Homo sapiens) (UniProt P37231)?
Output: 76

Input: What reported inhibition corresponds to `O=S(=O)(Nc1ccc(Oc2ccc(OC(F)(F)F)cc2)cc1)c1cc(Cl)c(Cl)cc1Cl` on Peroxisome proliferator-activated receptor gamma (Homo sapiens) (UniProt P37231)?
Output: 45

Input: What reported inhibition corresponds to `N#CC(/N=C/c1cc(Cl)cc(Cl)c1O)=C(C#N)/N=C/c1cc(Cl)cc(Cl)c1O` on Peroxisome proliferator-activated receptor gamma (Homo sapiens) (UniProt P37231)?
Output: 46

Input: What reported inhibition corresponds to `O=C(CN1c2ccccc2Sc2ccccc21)NNC(=S)NCc1ccccc1` on Peroxisome proliferator-activated receptor gamma (Homo sapiens) (UniProt P37231)?
Output: 86

Input: What reported inhibition corresponds to `CCCc1nc2c(C)cc(-c3nc4ccccc4n3C)cc2n1Cc1ccc(-c2ccccc2C(=O)O)cc1` on Peroxisome proliferator-activated receptor gamma (Homo sapiens) (UniProt P37231)?
Output: 91

Input: What reported inhibition corresponds to `COc1ccc(-c2cn3cccc(OCc4ccc(Cl)c(Cl)c4)c3n2)cc1` on Peroxisome proliferator-activated receptor gamma (Homo sapiens) (UniProt P37231)?
Output: 60

Input: What reported inhibition corresponds to `O=S(=O)(Nc1cc(Cc2cc(NS(=O)(=O)c3ccccc3)cc(C(F)(F)F)c2)cc(C(F)(F)F)c1)c1ccccc1` on Peroxisome proliferator-activated receptor gamma (Homo sapiens) (UniProt P37231)?
Output: 99

Input: What reported inhibition corresponds to `O=S(=O)(c1ccc(Cl)cc1)c1cnn(S(=O)(=O)c2ccc(Cl)cc2Cl)c1-c1ccc(Cl)cc1` on Peroxisome proliferator-activated receptor gamma (Homo sapiens) (UniProt P37231)?
Output: 80

---

Assignment: determine reported Activity for the given compounds.
study target: Peroxisome proliferator-activated receptor gamma (Homo sapiens)
assay notes: Transactivation of GAL4-fused human PPARgamma ligand binding domain expressed in African green monkey COS7 cells at 10 uM after 42 hrs by dual luciferase reporter gene assay relative to pioglitazone
Assay type: cell-based
assay context: COS-7
Return type: number; implicit unit %.

Input: What reported Activity corresponds to `Cc1noc(C)c1-c1noc(CSCc2ccc(Cl)cc2)n1` on Peroxisome proliferator-activated receptor gamma (Homo sapiens)?
Output: 8.4

Input: What reported Activity corresponds to `Cc1ccc(S(=O)(=O)n2nc(C)c(Sc3nccn3C)c2C)cc1` on Peroxisome proliferator-activated receptor gamma (Homo sapiens)?
Output: 10.1

Input: What reported Activity corresponds to `Cc1[nH]c2ccccc2c1SCc1nnc(SCc2ccccc2)n1C` on Peroxisome proliferator-activated receptor gamma (Homo sapiens)?
Output: 9.8
